Value source: patent US20260132208A1

- Study Target: T1, pm5 (Y15 and Y17 sulfated; Y16 not sulfated)
- T1 construct: also called sulfated CCR8 N-terminal peptide pm5
- T1 sequence (peptide, as listed by the source): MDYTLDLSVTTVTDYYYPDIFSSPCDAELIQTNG
- Method Description: ELISA on coated peptide [cont.]

{"Binder": "anti-CCR8 mAb 1-6 (antibody, V domains shown, Murine hybridoma mAb) VH: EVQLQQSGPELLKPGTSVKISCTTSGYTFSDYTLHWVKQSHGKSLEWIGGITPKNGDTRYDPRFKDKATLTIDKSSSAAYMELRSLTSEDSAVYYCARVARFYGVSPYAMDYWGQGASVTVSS VL: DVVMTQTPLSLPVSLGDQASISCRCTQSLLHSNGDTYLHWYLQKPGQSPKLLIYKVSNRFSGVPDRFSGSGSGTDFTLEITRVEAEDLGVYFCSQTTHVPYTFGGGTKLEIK", "binding result": "binds"}
{"Binder": "anti-CCR8 mAb 1-12 (antibody, V domains shown, Murine hybridoma mAb) VH: EVQLVETGGGLVQPKGSLKLSCAASGFTFNANAMNWVRQAPGKGLEWVARIRSKSNNYATYYADSVKDRFTISRDDSQSMLYLQMNNLKTEDTAMYYCVRGSDNYIFYAMDYWGQGTSVTVSS VL: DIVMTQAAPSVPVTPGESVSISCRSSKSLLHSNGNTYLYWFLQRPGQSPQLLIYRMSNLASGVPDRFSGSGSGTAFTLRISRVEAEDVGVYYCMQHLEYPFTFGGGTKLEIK", "binding result": "binds"}
{"Binder": "anti-CCR8 mAb 1-7 (antibody, V domains shown, Murine hybridoma mAb) VH: QVHLVETGGGLVRPGNSLKLSCVTSGFTLSNYRMHWLRQPPGKRLEWIAVIKVKSDNYGANYAESVKGRFTISRDDAKSSVYLQMNRLREEDTATYYCSRPDGFSPFVYWGQGTLVTVSA VL: DIKMTQSPSSMYASLGERVTITCKASQDINSYLSWFQQKPGKSPKTLIYRANRLVDGVPSRFSGSGSGQDYFLTISSLEYEDMGIYYCLQYGEFPPTFGAGTKLELK", "binding result": "binds"}
